# assayComment: soluble on expression in E. coli; label from the status in PepcDB or PDB records
readoutType: soluble on expression in E. coli

Some solved cases for reference:
sequenceentry=MGDTGKLGRIIRHDAFQVWEGDEPPKLRYVFLFRNKIMFTEQDASTSPPSYTHYSSIRLDKYNIRQHTTDEDTIVLQPQEPGLPSFRIKPKDFETSEYVRKAWLRDIAEEQEKYAAERD value=soluble
sequenceentry=HGDGPGNAVQEIMIPASKAGLVIGKGGETIKQLQERAGVKMVMIQDGPQNTGADKPLRITGDPYKVQQAKEMVLELIRDQG value=soluble
sequenceentry=MAVVFKKTEGLQDTQTHYCPGCTHGIIHRLVGEVLEELGVLGDAVGVVPVGCSVLGYKYFNCDTQEAAHGRAPAAATGIKRVHPENTVFTYQGDGDLASIGTAEIVHAAARGEKITTIFVNNTTYGMTGGQMAPTTLVGQRATTAQSGRNAETQGYPIRVSEMLATLTGAVFVERVAVDTPAHVRQAKKAIKKAFQVQQAGLGFGIVEVLSTCPTNWGLAPNDALQWLRDNMIPYYPLGNFKNVEVEEVK value="not soluble"
sequenceentry=SLEHFDDKSQLKRNGFYFSYNVDKENIEHWISAILFQVLKDKEDIVILSLGVDTLVGDSLGPLVGSILKRNGIPNVYGTLDRTVNASNIIKILDEIHERFKNPYILVVDAAVTAENNINDIVLRNGGFTPGFGVYRQLPTVGDFSLVGVVNKEDEREHNLIELLKKCRFDEVLKLARIISKILVLTFARMNKGDK value=soluble
sequenceentry=MSLLLIKNGKIITMTGKNYDKGCVLIDNGKIVDVNENIKENKYMKVIDASNFTVIPGIIDAHCHIGIDEQDIGKVGLDINEVSNPVTPNLRAIDAINPMDSAFNDAVMGGITGVMTGPGSANVIGGQFVFMKTYGKCIDDMVVLEPAAVKAALGENPKRVYGGKGKAPVTRMAIAALLREALTEAENYKNKKEALKAKGERIEKNLKLEALIPVIEGNIPLKVHAHRADDILTAIRIAKEFKINITLDHCTEGHLIPEKVKESGYPVLVGPSLTSRSKSEVSNKTFKTPGVLANMGIKTAIITDHPVIPIQYLPICAGLSCREGMKVEDALYAITLNAAEICGVASRLGSIEKGKDADIAIFDGNPMEVFTKTIYTIIDGNIVYKHECYEGHHHHHH value=soluble
sequenceentry=MPPVVPCHCTQCRKWSGHFWAATSVAMADFRLVRDEGLRWFRASDTASRGFCALCGSSLSWKPDGRDRMSFSPGAVDGPTGLATGHHIFMDEAGDYCRVSDGTPHYPGDDEA value="not soluble"

Here's the next entry for you.
Lookup: What does the data say about its soluble on expression in E. coli? Entry: SYELTQPPSVSVAPGQTARISCSGDNIGGTFVSWYQQKPGQAPVLVIYDDNDRPSGIPERFSGSNSGNTATLTISGTQAEDEADYYCGTWDMVTNNVFGGGTKLTVLGQPKAAPSVTLFPPSSEELQANKATLVCLISDFYPGAVTVAWKADSSPVKAGVETTTPSKQSNNKYAASSYLSLTPEQWKSHRSYSCQVTHEGSTVEKTVAPTECS
Found: soluble

###

# assayComment: soluble on expression in E. coli; label from the status in PepcDB or PDB records
readoutType: soluble on expression in E. coli

sequenceentry=MELSDSKVIAADRATVWAALLSPEVLKECVPGCQEMSGSPDEGFEATVVQKVGPVKATFKGGVTLSEMVAPESLTLSGEGKGGAAGFAKGAARVRLEEGADGTTILSYEVEAKVGGKLAQLGSRIIDGFARKMADQFFTRFQEVLEGPGEAESPEAEASGDAKKKGWFKRVISGLEHHHHHH value=soluble
sequenceentry=MDLSELERDNTGRCRLSSPVPAVCLKEPCVLGVDEAGRGPVLGPMVYAICYCPLSRLADLEALKVADSKTLTENERERLFAKMEEDGDFVGWALDVLSPNLISTSMLGRVKYNLNSLSHDTAAGLIQYALDQNVNVTQVFVDTVGMPETYQARLQQHFPGIEVTVKAKADSLFPVVSAASIFAKVARDKAVKNWQFVENLQDLDSDYGSGYPNDPKTKAWLRKHVDPVFGFPQFVRFSWSTAQAILEKEAEDVIWEDSEAEEDPERPGKITSYFSQGPQTCRPQAPHRYFQERGLEAASSL value=soluble
